conditions: Ebola virus entry assay, blue channel fluorescence
Activity calls are given as the source filed them.
Labels: yes (active), no (inactive)

molecule="Cc1ccccc1C(OCCN(C)C)c1ccccc1 (stereo unspecified)" qualitative_label=yes
molecule=CCOP(=S)(OCC)Oc1cc(C)nc(C(C)C)n1 qualitative_label=no
molecule="Nc1cccc2c1CN(C1CCC(=O)NC1=O)C2=O (stereo unspecified)" qualitative_label=no
molecule=CCN(CC)CCOC(=O)C1(C2CCCCC2)CCCCC1 qualitative_label=yes
molecule=Cc1nc(N)nc(N)c1-c1ccc(Cl)c(Cl)c1 qualitative_label=yes
molecule=C=C[C@H]1CN2CC[C@H]1C[C@@H]2[C@@H](O)c1ccnc2ccc(OC)cc12 qualitative_label=yes

====

experiment: S16 Schwann cell PMP22 intronic element firefly luciferase assay (AID 624032); conditions: S16 rat Schwann cells, PMP22 element FLuc, 24 h; series mostly up to 57.5 µM;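 note: plate controls were DMSO for no effect and PTC124 positive control mean for full effect; nearly all actives have a fitted effect of over 30% in size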
Inconclusive results are not listed. The source made the active and inactive calls. Calls come from the whole dose curve; as a rule, active = well fitted inhibition curve with a large enough effect; inconclusive = small, poorly fitted or top-dose-only effect; inactive = no such curve, though single readings can be large or run the other way.
parameter: outcome

compound=CN1CCN(C(=O)O[C@H]2c3nccnc3C(=O)N2c2ccc(Cl)cn2)CC1 observed_result=inactive
compound=CC(=O)Nc1nnc(S(N)(=O)=O)s1 observed_result=inactive
compound="O=C(NC(O)C(Cl)(Cl)Cl)NC(O)C(Cl)(Cl)Cl (stereo not given)" observed_result=inactive
compound=CC(=O)[C@H]1CC[C@H]2[C@@H]3CC[C@H]4C[C@](C)(O)CC[C@]4(C)[C@H]3CC[C@]12C observed_result=inactive
compound=Oc1ccc(Cl)cc1Cc1ccccc1 observed_result=inactive

====

Assay: S16 Schwann cell viability assay (CellTiter-Glo assay) (AID 624031); note: nearly all actives have a fitted effect of over 70% in size
Details: S16 rat Schwann cells viability, 24 h; series mostly up to 57.5 µM
Procedure: Charcot-Marie-Tooth-Association [CMTA] National Center for Advancing Translational Sciences [NCATS] […] Native S16 cells were seeded in white solid-bottom 1536 well plates at between 500-750 cells/6uL in DMEM medium containing 10% FBS, w/o phenol red. […] Then one volume of CellTiter-Glo assay reagent (Promega) was added to each well for cell viability measured by a ViewLux plate reader (PerkinElmer). […]
Inconclusive results are not listed. Active and inactive are the calls of the source. Calls follow the shape of the dose curve; as a rule, active = well fitted cell-killing curve with a large enough effect; inconclusive = small, poorly fitted or top-dose-only effect, or effect the other way; inactive = flat fitted curve, though single readings scatter.
Labels: True = active, False = inactive

molecule="CCCC(C)(COC(N)=O)COC(=O)NC(C)C (stereo not drawn)" qualitative_label=False
molecule="CC[N+]1(C)CCCC(OC(=O)C(O)(c2ccccc2)c2ccccc2)C1 (stereo not drawn)" qualitative_label=False
molecule=Cn1c(CCCC(=O)O)nc2cc(N(CCCl)CCCl)ccc21 qualitative_label=False
molecule=OCCN1CCN(CCCN2c3ccccc3Sc3ccc(C(F)(F)F)cc32)CC1 qualitative_label=True
molecule=NN=C(N)N qualitative_label=False
molecule="CC(CCc1ccccc1)NC(C)C(O)c1ccc(O)cc1 (stereo not drawn)" qualitative_label=False
molecule=COc1ccccc1N1CCNCC1 qualitative_label=False
molecule="CC1OC(C)OC(C)O1 (stereo not drawn)" qualitative_label=False
molecule="CC(C)(C)NCC(O)c1cc(Cl)c(N)c(Cl)c1 (stereo not drawn)" qualitative_label=False
molecule=CCN(C(C)=O)c1cccc(-c2ccnc3c(C#N)cnn23)c1 qualitative_label=False
molecule=CC[C@@H](CO)NC(=O)[C@@H]1C=C2c3cccc4[nH]cc(c34)C[C@H]2N(C)C1 qualitative_label=False
molecule=CCOC(=O)C1(c2ccccc2)CCN(CCC(C#N)(c2ccccc2)c2ccccc2)CC1 qualitative_label=False
molecule="COc1ccc(C(CN(C)C)C2(O)CCCCC2)cc1 (stereo not drawn)" qualitative_label=False
molecule="O=P1(NCCCl)OCCCN1CCCl (stereo not drawn)" qualitative_label=False
molecule="CC(C)NCC(O)c1ccccc1Cl (stereo not drawn)" qualitative_label=False
molecule=CCN(CC)CCN1C(=O)CN=C(c2ccccc2F)c2cc(Cl)ccc21 qualitative_label=False
molecule="CCCC1CCCCN1 (stereo not drawn)" qualitative_label=False
molecule=CCN(CC)CCOC(=O)C(O)(c1ccccc1)c1ccccc1 qualitative_label=False

====

details: Ebola virus entry cell assay, ratio channel
The source made the active and inactive calls.
Labels: active, inactive

compound=CN(N=O)C(=O)N[C@@H]1[C@@H](O)[C@H](O)[C@@H](CO)O[C@@H]1O qualitative_label=inactive
compound="CC(CN(C)C)CN1c2ccccc2CCc2ccccc21 (centres undefined)" qualitative_label=active
compound=C=C(c1ccc(C(=O)O)cc1)c1cc2c(cc1C)C(C)(C)CCC2(C)C qualitative_label=inactive
compound=CCN(C(C)=O)c1cccc(-c2ccnc3c(C#N)cnn23)c1 qualitative_label=inactive
compound=Cc1ccc(S(=O)(=O)NC(=O)NN2CCCCCC2)cc1 qualitative_label=inactive
compound=CC[C@@H](CO)NCCN[C@@H](CC)CO qualitative_label=inactive
compound=CC(C)NC[C@@H](O)COc1ccc(CC(N)=O)cc1 qualitative_label=inactive
compound="Cc1c(OCC(F)(F)F)ccnc1CS(=O)c1nc2ccccc2[nH]1 (centres undefined)" qualitative_label=inactive
compound="O=C(OC1C[C@H]2CC[C@@H](C1)[N+]21CCCC1)C(O)(c1ccccc1)c1ccccc1 (some centres undefined)" qualitative_label=inactive

====

system: DIV30; assay: qHTS profiling for inhibitors of Plasmodium falciparum proliferation (AID 504749); note: nearly all actives have a fitted effect of over 60% in size; conditions: P. falciparum in erythrocytes, SYBR Green DNA, 72 h; series mostly up to 28.7 µM
Inconclusive results are not listed. Activity calls are given as the source filed them. Calls follow the shape of the dose curve; as a rule, active = well fitted inhibition curve with a large enough effect; inconclusive = small, poorly fitted or top-dose-only effect; inactive = flat fitted curve, though single readings scatter.
Labels: t (active), f (inactive)

compound=C[C@]12C/C(=C/O)C(=O)C[C@@H]1CC[C@@H]1[C@@H]2CC[C@@]2(C)[C@H]1CC[C@]2(C)O qualitative_label=f
compound="O=C(NC(O)C(Cl)(Cl)Cl)NC(O)C(Cl)(Cl)Cl (centres undefined)" qualitative_label=f
compound="CC1NCCOC1c1ccccc1 (centres undefined)" qualitative_label=f
compound="CC[N+]1(C)CCCC(OC(=O)C(O)(c2ccccc2)c2ccccc2)C1 (centres undefined)" qualitative_label=f
compound="Clc1ccc(COC(Cn2ccnc2)c2ccc(Cl)cc2Cl)cc1 (centres undefined)" qualitative_label=t
compound=FC(F)(F)c1cccc(C2=CCN(CCc3ccc4ccccc4c3)CC2)c1 qualitative_label=f
compound=CCOP(=S)(OCC)Oc1cc(C)nc(C(C)C)n1 qualitative_label=f
compound=Nc1ccncc1 qualitative_label=f
compound=Oc1ccc(Cl)cc1Cc1ccccc1 qualitative_label=t

====

settings: Ebola virus entry assay, green fluorescence channel
Measured potencies and affinities stand elsewhere.
parameter: efficacy (%)

compound=C[C@@H](NCCCc1cccc(C(F)(F)F)c1)c1cccc2ccccc12 observed_result=-223
compound=NP(N)(=O)NC(=O)c1ccc(F)cc1 observed_result=-25
compound=CCN1CCN(C(=O)N[C@@H](C(=O)N[C@@H]2C(=O)N3C(C(=O)O)=C(CSc4nnnn4C)CS[C@H]23)c2ccc(O)cc2)C(=O)C1=O observed_result=-23.3
compound=Cc1ccc(C(=O)c2cc(O)c(O)c([N+](=O)[O-])c2)cc1 observed_result=31.1
compound=CCCN(CCC)S(=O)(=O)c1ccc(C(=O)O)cc1 observed_result=-17.8
compound="COc1cc2nc(N(C)CCCNC(=O)C3CCCO3)nc(N)c2cc1OC (stereo not drawn)" observed_result=46.7
compound=O=C1[C@H](CC[C@H](O)c2ccc(F)cc2)[C@@H](c2ccc(O)cc2)N1c1ccc(F)cc1 observed_result=-26.4
compound=C#CCN(C)[C@H](C)Cc1ccccc1 observed_result=21.9

====

details: Ebola virus entry assay, ratio channel
Calls of active or inactive are those of the source.
Labels: TRUE = active, FALSE = inactive

compound=C=C[C@H]1CN2CC[C@H]1C[C@@H]2[C@@H](O)c1ccnc2ccc(OC)cc12 qualitative_label=FALSE
compound=OCCOc1ccccc1 qualitative_label=FALSE
compound="Clc1ccc(C(c2ccccc2Cl)C(Cl)Cl)cc1 (stereo unspecified)" qualitative_label=TRUE
compound=CC[C@@H](CO)NC(=O)[C@@H]1C=C2c3cccc4[nH]cc(c34)C[C@H]2N(C)C1 qualitative_label=TRUE
compound=Cc1cn([C@H]2C[C@H](N=[N+]=[N-])[C@@H](CO)O2)c(=O)[nH]c1=O qualitative_label=FALSE
compound="O=C1CCC(N2C(=O)c3ccccc3C2=O)C(=O)N1 (stereo unspecified)" qualitative_label=FALSE
compound="C[C@]12CC[C@@H]3c4ccc(O)cc4C[C@@H](CCCCCCCCCS(=O)CCCC(F)(F)C(F)(F)F)[C@H]3[C@@H]1CC[C@@H]2O (stereo partly specified)" qualitative_label=FALSE
compound=CC(C)(C)NC(=O)[C@@H]1CN(Cc2cccnc2)CCN1C[C@@H](O)C[C@@H](Cc1ccccc1)C(=O)N[C@H]1c2ccccc2C[C@H]1O qualitative_label=FALSE
compound=C[C@]12CCC(=O)C(O)=C1CC[C@@H]1[C@@H]2CC[C@]2(C)C(=O)CC[C@@H]12 qualitative_label=FALSE
compound=Cc1cc2c(C(C)C)c(O)c(O)c(C=O)c2c(O)c1-c1c(C)cc2c(C(C)C)c(O)c(O)c(C=O)c2c1O qualitative_label=FALSE
compound="O=c1oc2ccccc2c(O)c1C(CC(O)c1ccc(-c2ccc(Br)cc2)cc1)c1ccccc1 (stereo unspecified)" qualitative_label=FALSE
compound="Cn1c(=O)c2c(ncn2CC(O)CO)n(C)c1=O (stereo unspecified)" qualitative_label=FALSE
compound=CC[N+](C)(C)c1cccc(O)c1 qualitative_label=FALSE
compound=CN(C)CCC=C1c2ccccc2C=Cc2ccccc21 qualitative_label=TRUE
compound=Cc1[nH]c(=O)c(C#N)cc1-c1ccncc1 qualitative_label=FALSE
compound=Oc1cccc2cccnc12 qualitative_label=FALSE

Hello, the source for this data is PubChem BioAssay (NCATS), in case you need it.
